Reported values of Population Healthy Nuclei (%) for individual entries
Tested on: U2OS
Protocol text: Multiplex assay against U2OS
Format: toxicity, cell-based
Run conditions: human, 12 h, 10 µM, compound concentration 10 uM, replicate 1
The response must be a number in % with no trailing unit.

Examples with their reported Population Healthy Nuclei (%) follow.
{"columns": ["Compound", "Numeric value"],
 "data": [
  ["Cl.Cl.NC1(c2ccc(-c3nc4ccn5c(=O)[nH]nc5c4cc3-c3ccccc3)cc2)CCC1", 40],
  ["COc1cc2c(NC3CCN(C(C)C)CC3)nc(N3CCC(F)(F)CC3)nc2cc1OCCCN1CCCC1", 71],
  ["Cc1nc(Cc2cccc(C(F)(F)F)c2)sc1-c1ccc(C(N)=O)nc1 [TP-024n]", 68],
  ["Cc1cc2c(cc1N1C(=O)c3cccc4c(CCCO)ccc(c34)C1=O)n(C)c(=O)n2C", 72],
  ["CNc1oc(-c2cccc3ccccc23)nc1C#N", 18]
]}

Observed Population Healthy Nuclei (%), U2OS, Cc1c(Oc2ccc(F)cc2)c(OC(C)C)nn1-c1ccc(C2CC2)cn1 : 88

Assay U2OS, sample c1ccc2oc(-c3csc(C4CCN(Cc5nc6ncccc6[nH]5)CC4)n3)cc2c1 , Population Healthy Nuclei (%) read: 91

With U2OS as the test system, CCn1c(-c2nonc2N)nc2cnc(Oc3cccc(NC(=O)c4ccc(OCCN5CCOCC5)cc4)c3)cc21 [GSK-269962A] showed Population Healthy Nuclei (%) of 53

Considering Nc1ccc(C(=O)Nc2cccc(-c3nc(N4CCOCC4)c4oc5ncccc5c4n3)c2)cn1 , its Population Healthy Nuclei (%) with U2OS was recorded as 24

Kindly note: U2OS, CCC(=O)O[C@]1(C(=O)SCF)[C@H](C)C[C@H]2[C@@H]3C[C@H](F)C4=CC(=O)C=C[C@]4(C)[C@@]3(F)[C@@H](O)C[C@@]21C [FLUTICASONE PROPIONATE] , Population Healthy Nuclei (%) value reported: 72

###

System: Fibroblast
Protocol text: Multiplex assay against human fibroblast
Type: toxicity, cell-based
Run conditions: 24 h, 1 µM, compound concentration 1 uM, replicate 2
Attribute measured: Population Mitotic Cells (%)
Quick note: give the figure in %, leave out the unit.

{"columns": ["Compound", "Value unit", "Numeric value"],
 "data": [
  ["CCOc1cc(N2CCC(O)CC2)ccc1Nc1ncc2c(n1)N(C1CCCC1)CCC(=O)N2C", "%", 33],
  ["CCC(=O)O[C@]1(C(=O)SCF)[C@H](C)C[C@H]2[C@@H]3C[C@H](F)C4=CC(=O)C=C[C@]4(C)[C@@]3(F)[C@@H](O)C[C@@]21C [FLUTICASONE PROPIONATE]", "%", 83],
  ["COc1cc2c(NC3CCN(C(C)C)CC3)nc(N3CCC(F)(F)CC3)nc2cc1OCCCN1CCCC1", "%", 70],
  ["COc1ccc(NS(=O)(=O)c2sc3ccc(Cl)cc3c2C)cc1N1CCNCC1.Cl", "%", 66],
  ["CCn1c(-c2nonc2N)nc2cnc(Oc3cccc(NC(=O)c4ccc(OCCN5CCOCC5)cc4)c3)cc21 [GSK-269962A]", "%", 25]
]}

The compound COc1cc2c(Nc3ccc(NC(=O)c4ccccc4)cc3)ncnc2cc1OCCCN1CCOCC1 , when measured on Fibroblast, yielded Population Mitotic Cells (%) of 41

Query CN(C)C/C=C/C(=O)Nc1cc2c(Nc3ccc(F)c(Cl)c3)ncnc2cc1O[C@H]1CCOC1.O=C(O)/C=C\C(=O)O.O=C(O)/C=C\C(=O)O [AFATINIB DIMALEATE] on Fibroblast; Population Mitotic Cells (%) returned: 50
